# measurement-protocol: FRET assay of NBD-Toc transfer from α-TTP variants to SUVs
# Type: biochemical
# condition: PC vesicles; 0.225 μM NBD-Toc, 2 μM α-TTP, 100 μM vesicles; room temperature
measurement-kind: Rate of NBD-Toc transfer to SUV, Rate (s⁻¹)
Give your result in s⁻¹ as a bare value.

Q. Quick one: Rate of NBD-Toc transfer to SUV, Rate for M209D: α-TTP mutant, Met209 to Asp (helix A10) (protein, UniProt P49638 1-278, looked up, variant M209D) Alpha-tocopherol transfer …: MAEARSQPSAGPQLNALPDHSPLLQPGLAALRRRAREAGVPLAPLPLTDSFLLRFLRARDFDLDLAWRLLKNYYKWRAECPEISADLHPRSIIGLLKAGYHGVLRSRDPTGSKVLIYRIAHWDPKVFTAYDVFRVSLITSELIVQEVETQRNGIKAIFDLEGWQFSHAFQITPSVAKKIAAVLTDSFPLKVRGIHLINEPVIFHAVFSDIKPFLTEKIKERIHMHGNNYKQSLLQHFPDILPLEYGGEEFSMEDICQEWTNFIMKSEDYLSSISESIQ ?
A. 0.047
